# key: entry, value: CC50
assay: in vitro
assayContext: human, CC50 (MTT assay), Huh-7; 48 h cell incubation with AV
measuredProperty: CC50

- compound: "CCC(CC)COC(=O)[C@H](C)N[P@](=O)(OC[C@H]1O[C@@](C#N)(c2ccc3c(N)ncnn23)[C@H](O)[C@@H]1O)Oc1ccccc1 [RDV, remdesivir]"
  measuredProperty: "CC50"
  value: "20 µM"
- compound: "CCCC(CCC)C(=O)O [VPA, valproic acid]"
  measuredProperty: "CC50"
  value: "66000 µM"
- compound: "CCCCCCCCCCCCOC(=O)c1cc(O)c(O)c(O)c1 [LG, lauryl gallate]"
  measuredProperty: "CC50"
  value: "55 µM"

====

System: SARS-CoV-2 isolate MAD6 (Wuhan-Hu-1 strain)
assay: Virus yield inhibition in infected Calu3 2B4 cells, plaque assay on Vero E6
Assay type: cell-based
assayContext: Severe acute respiratory syndrome coronavirus 2, Calu-3 2B4, Calu3 2B4; Wuhan-Hu-1 strain; AV from 1 h before adsorption; 24 hpi; Fig. 1; read-out: IC50, virus yield
pIC50: −log10 of the molar value.

- molecule: "CCC(CC)COC(=O)[C@H](C)N[P@](=O)(OC[C@H]1O[C@@](C#N)(c2ccc3c(N)ncnn23)[C@H](O)[C@@H]1O)Oc1ccccc1 [RDV, remdesivir]"
  pIC50: 5.97

====

Entries and their pIC50 values follow.
Tested on: HCoV-229E-GFP
assay: Time of addition assay
Format: cell-based
assayContext: Human coronavirus 229E, read-out: IC50, HCoV-229E-GFP production, AV added −3 hpi (1 h before adsorption); 24 hpi
pIC50: −log10 of the molar value.

- molecule: "CCCC(CCC)C(=O)O [VPA, valproic acid]"
  pIC50: 2.02
- molecule: "CCCCCCCCCCCCOC(=O)c1cc(O)c(O)c(O)c1 [LG, lauryl gallate]"
  pIC50: 5.91

====

// reported CC50 for each item listed
assay: in vitro
assayContext: human, CC50 (MTT assay), HCT-8; 24 h cell incubation with AV

- molecule: "CCCCCCCCCCCCOC(=O)c1cc(O)c(O)c(O)c1 [LG, lauryl gallate]"
  CC50: "55 µM"
- molecule: "CCC(CC)COC(=O)[C@H](C)N[P@](=O)(OC[C@H]1O[C@@](C#N)(c2ccc3c(N)ncnn23)[C@H](O)[C@@H]1O)Oc1ccccc1 [RDV, remdesivir]"
  CC50: "43 µM"
- molecule: "CCCC(CCC)C(=O)O [VPA, valproic acid]"
  CC50: "95700 µM"

====

System: SARS-CoV-2 isolate MAD6 (Wuhan-Hu-1 strain)
assay: Time of addition assay
Assay type: cell-based
assayContext: Severe acute respiratory syndrome coronavirus 2, AV added −2 hpi (1 h before adsorption); 24 hpi; read-out: IC50, SARS-CoV-2 production
measuredProperty: IC50 (mM)

- compound: "CCCC(CCC)C(=O)O [VPA, valproic acid]"
  measuredProperty: "IC50"
  value: 4.99
- compound: "CCCCCCCCCCCCOC(=O)c1cc(O)c(O)c(O)c1 [LG, lauryl gallate]"
  measuredProperty: "IC50"
  value: 0.00272

====

assay: in vitro
assayContext: human, CC50 (MTT assay), Huh-7; 24 h cell incubation with AV
measuredProperty: CC50 (µM)

- compound: "CCCC(CCC)C(=O)O"
  measuredProperty: "CC50"
  value: 70000
- compound: "CCC(CC)COC(=O)[C@H](C)N[P@](=O)(OC[C@H]1O[C@@](C#N)(c2ccc3c(N)ncnn23)[C@H](O)[C@@H]1O)Oc1ccccc1"
  measuredProperty: "CC50"
  value: 25
- compound: "CCCCCCCCCCCCOC(=O)c1cc(O)c(O)c(O)c1 [LG, lauryl gallate]"
  measuredProperty: "CC50"
  value: 83.1

====

Examples of molecules with documented CC50 follow.
assay: in vitro
assayContext: human, CC50 (MTT assay), HCT-8; 48 h cell incubation with AV
measuredProperty: CC50 (µM)

- molecule: "CCC(CC)COC(=O)[C@H](C)N[P@](=O)(OC[C@H]1O[C@@](C#N)(c2ccc3c(N)ncnn23)[C@H](O)[C@@H]1O)Oc1ccccc1"
  value: 38
- molecule: "CCCCCCCCCCCCOC(=O)c1cc(O)c(O)c(O)c1 [LG, lauryl gallate]"
  value: 50.4
- molecule: "CCCC(CCC)C(=O)O"
  value: 76200

====

Below, each entry is listed with its recorded pIC50.
System: HCoV-229E, HCoV-OC43, and SARS-CoV-2
assay: Antiviral assays, summary over all tested HCoVs
Format: cell-based, human coronaviruses
assayContext: average over all tested HCoVs; read-out: average IC50 value
pIC50: −log10 of the molar value.
measuredProperty: pIC50

- compound: "CCCC(CCC)C(=O)O [VPA, valproic acid]"
  measuredProperty: "pIC50"
  value: 2.14
- compound: "CCCCCCCCCCCCOC(=O)c1cc(O)c(O)c(O)c1 [LG, lauryl gallate]"
  measuredProperty: "pIC50"
  value: 5.80

====

Test system: SARS-CoV-2 isolate MAD6 (Wuhan-Hu-1 strain)
assay: Time of addition assay
Format: cell-based
assayContext: Severe acute respiratory syndrome coronavirus 2, AV added 0 hpi; 24 hpi; read-out: IC50, SARS-CoV-2 production
measuredProperty: IC50 (µM)

- compound: "CCCCCCCCCCCCOC(=O)c1cc(O)c(O)c(O)c1 [LG, lauryl gallate]"
  measuredProperty: "IC50"
  value: 2.9
- compound: "CCCC(CCC)C(=O)O [VPA, valproic acid]"
  measuredProperty: "IC50"
  value: 5020

====

Test system: SARS-CoV-2 isolate MAD6 (Wuhan-Hu-1 strain)
assay: Virus yield inhibition in infected Calu3 2B4 cells, plaque assay on Vero E6
Type: cell-based
assayContext: Severe acute respiratory syndrome coronavirus 2, Calu-3 2B4, read-out: IC50, virus yield, Calu3 2B4; Wuhan-Hu-1 strain; AV from 1 h before adsorption; 24 hpi; Fig. 1
measuredProperty: IC50 (nM)

- compound: "CCCCCCCCCCCCOC(=O)c1cc(O)c(O)c(O)c1 [LG, lauryl gallate]"
  testedOn: "SARS-CoV-2 isolate MAD6 (Wuhan-Hu-1 strain)"
  value: 2260

====

Items are presented alongside their recorded HCoV-OC43 titers.
Test system: HCoV-OC43
assay: microbe, parasite or virus in culture
Type: cell-based
assayContext: at 100 μM; Fig. 3; no drug 1.8 ± 0.9 × 10^6

- compound: "CCCCCCCCOC(=O)c1cc(O)c(O)c(O)c1 [OG, octyl gallate]"
  HCoV-OC43 titers: "5 ± 0.01 × 10^1 PFU/mL"
- compound: "CCCOC(=O)c1cc(O)c(O)c(O)c1 [PG, propyl gallate]"
  HCoV-OC43 titers: "1.2 ± 0.3 × 10^6 PFU/mL"
- compound: "O=C(O)c1cc(O)c(O)c(O)c1"
  HCoV-OC43 titers: "1.2 ± 0.2 × 10^6 PFU/mL"
- compound: "CCCCCCCCCCCCOC(=O)c1cc(O)c(O)c(O)c1 [LG, lauryl gallate]"
  HCoV-OC43 titers: "5 ± 0.01 × 10^1 PFU/mL"

====

Each record here notes measured CC50.
assay: in vitro
assayContext: African green monkey

- compound: "CCCCCCCCCCCCOC(=O)c1cc(O)c(O)c(O)c1 [LG, lauryl gallate]"
  CC50 / µM: 90.9
- compound: "CCC(CC)COC(=O)[C@H](C)N[P@](=O)(OC[C@H]1O[C@@](C#N)(c2ccc3c(N)ncnn23)[C@H](O)[C@@H]1O)Oc1ccccc1 [RDV, remdesivir]"
  CC50 / µM: 85

====

Measured IC50 accompanies every entry in the list below.
System: HCoV-OC43
assay: Time of addition assay
Format: cell-based
assayContext: Betacoronavirus 1, OC43, read-out: IC50, HCoV-OC43 production, AV added 0 hpi; 48 hpi

- molecule: "CCCC(CCC)C(=O)O [VPA, valproic acid]"
  IC50, mM: 9.69
- molecule: "CCCCCCCCCCCCOC(=O)c1cc(O)c(O)c(O)c1 [LG, lauryl gallate]"
  IC50, mM: 0.00192
